# Tested on: HT-29 colon adenocarcinoma
# methodSummary: MTT cytotoxicity assay, HT-29
# statedConditions: Homo sapiens, HT-29, […], read-out: Cytotoxicity ED50, HT-29, HT-29; MTT, six days
parameter: pIC50
Answers are plain numbers, as −log10 of the molar value.

# input Give pIC50 for the following compound: COc1cccc(/C=C\c2cc(OC)c(OC)c(OC)c2)c1
# output 7.05

# input Give pIC50 for the following compound: COc1cccc(/C=C/c2cc(OC)c(OC)c(OC)c2)c1
# output 5.14

We now examine a further compound.
# input Give pIC50 for the following compound: COc1ccc(/C=C/c2cc(OC)c(OC)c(OC)c2)cc1
# output 5.74
